Assay: molar heat capacity at constant pressure
Details: 324.15 K; 101.33 kPa; Liquid; Small sample (50 mg) DSC
attribute measured: molar heat capacity at constant pressure (J/K/mol)

# structure, unit info, measured result
data = [
    ("BrCCCCCCCCBr", "J/K/mol", 316.53),
    ("BrCCCCCCCCCBr", "J/K/mol", 346.54),
    ("BrCCCCCCCCCCCBr", "J/K/mol", 408.19),
    ("BrCCCCCCCCCCCCBr", "J/K/mol", 440.04),
]

---

Test: molar heat capacity at constant pressure
Conditions: 346.65 K; 101.33 kPa; Liquid; Small sample (50 mg) DSC
attribute measured: molar heat capacity at constant pressure (J/K/mol)

# structure, molar heat capacity at constant pressure (J/K/mol)
rows = [
    ("BrCCCCCCCCCCCCBr", 453.29),
    ("BrCCCCCCCCCBr", 356.99),
    ("BrCCCCCCCCBr", 325.3),
    ("BrCCCCCCCCCCCBr", 420.72),
]

---

Assay: molar heat capacity at constant pressure
Conditions: 328.65 K; 101.33 kPa; Liquid; Small sample (50 mg) DSC
attribute measured: molar heat capacity at constant pressure (J/K/mol)

# structure, unit info, measured result
data = [
    ("BrCCCCCCCCCCCBr", "J/K/mol", 410.67),
    ("BrCCCCCCCCCCCCBr", "J/K/mol", 442.68),
    ("BrCCCCCCCCCBr", "J/K/mol", 348.6),
    ("BrCCCCCCCCBr", "J/K/mol", 318.3),
]

---

Assay: molar heat capacity at constant pressure
Conditions: 325.65 K; 101.33 kPa; Liquid; Small sample (50 mg) DSC
attribute measured: molar heat capacity at constant pressure (J/K/mol)

# structure, molar heat capacity at constant pressure, J/K/mol
measured = [
    ("BrCCCCCCCCCCCCBr", 440.91),
    ("BrCCCCCCCCCCCBr", 409.01),
    ("BrCCCCCCCCBr", 317.12),
    ("BrCCCCCCCCCBr", 347.22),
]

The reported numbers originate from the NIST ThermoML archive (doi:10.1021/je201002j).
